// data source = PubChem BioAssay (NCI)

system: SNB-19 CNS; assay: NCI-60 one-dose screen, 48 h (100 = growth as untreated, 0 = no growth, -100 = all killed); conditions: 10 µM unless noted
This is part of a sample that, as a whole, favours compounds with a hit. Of some 83,000 tested, about 20% had one in any assay.
PARAMETER_MEASURED: growth (%)

>>> df
                                   compound  parameter_measured  unit_string  observed_measurement
0    N#CC(C#N)=Cc1c(-c2ccccc2)[nH]c2ccccc12              growth            %                  37.8
1  CCC1=C[C@]2(C3CC(=O)N(c4ccccc4)C3=O)CC(C(C)(C)C)C[C@@H]2[C@@H]2C(=O)N(c3ccccc3)C(=O)[C@H]12 (stereo not given in full)              growth            %                  86.2
2  O=c1c2cc(F)ccc2sc2c(Nc3ccncc3)nc3ccccc3c12              growth            %                  25.5
3  O=C(Nc1ncc(Cc2cccc(C(F)(F)F)c2)s1)C1COc2ccccc2O1 (stereo not given)              growth            %                  89.9
4  CC/C(=C(\CC)c1ccc(OCC[N+](C)(C)C)cc1)c1ccc(OC)cc1              growth            %                  27.1
5   CNCCNc1nc2ccccc2c2c(=O)c3cccc(OC)c3sc12              growth            %                    42
6           O=C(Nc1ccc(Cl)cc1F)c1cc(I)ccc1O              growth            %                  18.9
7  COc1cc2c(cc1OC)C(=O)C(CC1CCN(C(=O)Nc3ccc(C)cc3)CC1)C2 (stereo not given)              growth            %                  95.2
8  CCOC(=O)C1=C(C)N=c2s/c(=C\c3ccccc3O)c(=O)n2C1c1ccc(OC)c2ccccc12 (stereo not given)              growth            %                  58.1
9  CC(C)CCOc1ccc(-c2n[nH]c(C(F)(F)F)c2-c2cncc(C#N)c2)c(O)c1              growth            %                  13.1

---

system: SK-OV-3 ovarian; test: NCI-60 one-dose screen, 48 h; details: 10 µM unless noted
The panel holds about 83,000 compounds, 20% with a hit somewhere; the sample as a whole holds those more often. Activity calls are given as the source filed them. How the source made its calls: active means growth percent below 10; inactive means the rest.
Labels: active, inactive

>>> print(df.to_string())
                                        smi  assigned_label
0     O=c1oc2ccc(I)cc2c(=O)n1-c1ccc(Cl)cc1F          active
1  CCOC(=O)C1(Cc2ccccc2)CCN(Cc2cccc(OC)c2O)CC1        inactive
2  COc1cc(-c2c3c(c(Br)n2Cc2ccccc2)-c2nc(N)sc2CC3)cc(OC)c1OC        inactive
3  O=S(=O)(c1ccc(NC(=S)NC23CC4CC(CC(C4)C2)C3)cc1)N1CCCCC1        inactive
4  COc1c2ccoc2c(/C=C/C=O)c2oc(-c3ccccc3)cc(=O)c12        inactive
